Answer each item with its documented Bind C*07:01.
target: HLA-C*07:01 (Homo sapiens, UniProt P10321, K90N/S123Y)
Type: binding
conditionsUsed: percent relative the binding of positive control peptide […]; duplicated experiments; positive binder >40%
Answers are plain numbers, in %.

* LAAYHPQQF | 84

For each listed entry, give its Bind C*07:01.
1. MAGSSAMIL
2. AMEDLVRAY [Rv0288_61–69]
3. DPSQGMGPS
4. AGCQTYKW E
5. IYAGSLSAL
6. YNYPAMLDH [Rv0288_6–14m2]
7. GGNNSPAVY

stdout:
1: 94; 2: 46; 3: 19; 4: 0; 5: 0; 6: 0; 7: 45

====

target: HLA-A*02:01 (Homo sapiens, UniProt P04439, D140Y/D185E/D98H/E176V/E277Q/G131W/G231S/I119V/I121R/I166T/I218V/L300P/L318F/N151K/N90K/P208A/P217A/Q86G/Q94H/R138H/R169H/T345S)
Format: binding
conditionsUsed: percent relative the binding of positive control peptide FLPSDFFPSV; plate-bound monomer 0.5 µg/ml; duplicated experiments; positive binder >40%
t means recorded Bind A*02:01 is 30% or above; f means it is below 30%.

Consider the worked cases shown below.
* LLDEGKQSL [Rv3875_28–36] | t
* WGGSGSEAY [Rv3875_43–51] | f
* ATATELNNA [Rv3875_60–68] | t
* GVQQKWDAT [Rv3875_53–61] | f
* QQKWDATAT [Rv3875_55–63] | f
* NLARTISEA [Rv3875_71–79] | t

Proceed to the following item.
stdin: Reported Bind A*02:01 at or above 30%? LQNLARTIS [Rv3875_69–77]
stdout: f

====

Kindly supply the reported Aff A*02:01 (ED50) values for the records listed here.
target: HLA-A*02:01 (Homo sapiens, UniProt P04439, D140Y/D185E/D98H/E176V/E277Q/G131W/G231S/I119V/I121R/I166T/I218V/L300P/L318F/N151K/N90K/P208A/P217A/Q86G/Q94H/R138H/R169H/T345S)
Assay type: binding
conditionsUsed: […]; peptide quantity for 50% binding saturation

• SQIMYNYPT [Rv0288_2–10m1] = 1e-06 M
• AMLDHAGDM [Rv0288_10–18m2] = 8e-08 M
• AAYHPQQFI = 6E -07 M

Okay, now this sequence:
stdin: If you can, please state the reported Aff A*02:01 (ED50) value of HSMSSTHEA [Rv0288_70–78m1] .
stdout: 0.001 M

====

What Bind B*07:02 was measured for each of the following?
target: HLA-B*07:02 (Homo sapiens, UniProt P01889)
Assay type: binding
conditionsUsed: percent relative the binding of positive control peptide […]; duplicated experiments; positive binder >40%
Numbers only, in %.

- LSIVMPVGG: 0
- LSANRAVKP: 11
- QQFIYAGSL: 0
- PSQGMGPSL: 8
- PAVYLLDGL: 63

Consider the following items and state reported Bind B*07:02 for each.
1. LTKLAAAWG [Rv3875_36-44]
2. MILAAYHPQ
3. GVQQKWDAT [Rv3875_53–61]

stdout:
1: 6; 2: 0; 3: 10

====

target: HLA-A*68:01 (Homo sapiens, UniProt P04439, A269V/D185E/E176V/E277Q/E87N/F33Y/G231S/I121M/I166T/I218V/L180W/L300P/L318F/N151K/P208A/P217A/Q86R/R169H/T345S)
Format: binding
conditionsUsed: percent relative the binding of positive control peptide […]; duplicated experiments; positive binder >40%
measuredMetric: Bind A*68:01 (%)
Numbers only, in %.

- LAMGDAGGY: 56
- GPSLIGLAM: 6
- NTPAFEWYY: 69
- VFNFPPNGT: 3
- ACGKAGCQT: 13
- YAGSLSALL: 13
- AEFLENFVR: 63
- VKPTGSAAI: 0

For each of the items listed, what is its Bind A*68:01?
1. PTQQIPKLV
2. PVGGQSSFY

stdout:
1. 0
2. 0

====

target: HLA-A*24:02 (Homo sapiens, UniProt P04439, D101N/D140Y/D185E/E176V/E190D/F33S/G103R/G107R/I119L/I121M/I306V/K335N/L105A/L180Q/L300P/N151K/N90K/Q86E/Q94H/R106L/R138H/R89G/T104I/T345S/V100E/W191G/Y123F)
Type: binding
conditionsUsed: percent relative the binding of positive control peptide […]; duplicated experiments; positive binder >40%
Threshold check on Bind A*24:02: at or above 20% gives 1 (yes), strictly below gives 0 (no).

For orientation, consider the following solved cases.
- MYNYPTMLD [Rv0288_5–13m3]: 1 (yes)
- GYAGTLQNL [Rv0288_20–28m1]: 1 (yes)
- DINTPAFEW: 1 (yes)

stdin: Reported Bind A*24:02 at or above 20%? NFVRSSNLK
stdout: 0 (no)

stdin: Say whether QIMYNYPTM [Rv0288_3–11m1] shows Bind A*24:02 of 20% or more.
stdout: 1 (yes)

stdin: API: above_or_equal(metric=Bind A*24:02, cutoff=20%) for item DGLRAQDDY
stdout: 0 (no)

stdin: Hi, just wondering whether FLENFVRSS shows Bind A*24:02 of 20% or higher.
stdout: 0 (no)

stdin: hey, is Bind A*24:02 for this one >= 20%? NLKFQDAYN
stdout: 0 (no)

stdin: State whether the measured Bind A*24:02 reaches 20%, counting equality as reaching it, for PSQGMGPSL
stdout: 1 (yes)

stdin: Assess whether reported Bind A*24:02 for NNTRLW VYC sits at 20% or higher.
stdout: 0 (no)

stdin: Please tell me: is the substance AGGYKAADM at or over 20% in terms of Bind A*24:02?
stdout: 0 (no)

====

Could you please report measured Bind A*68:01 for the items listed next?
target: HLA-A*68:01 (Homo sapiens, UniProt P04439, A269V/D185E/E176V/E277Q/E87N/F33Y/G231S/I121M/I166T/I218V/L180W/L300P/L318F/N151K/P208A/P217A/Q86R/R169H/T345S)
Type: binding
conditionsUsed: percent relative the binding of positive control peptide […]; duplicated experiments; positive binder >40%
Numbers only, in %.

I need Bind A*68:01 for every entry listed below, if you could help.
1. TMAMMARDT [Rv0288_80–88]
2. AYHPQQFIY
3. MKGDLQSSL
4. AMKGDLQSS
5. ANTMAMMAR [Rv0288_78–86]
6. DGLRAQDDY
7. RSSNLKFQD

stdout:
1. 47
2. 5
3. 19
4. 0
5. 147
6. 4
7. 11

Give Bind A*68:01 for each listed item.
1. GWDINTPAF
2. QLNAMKGDL

stdout:
1. 5
2. 0

Record Bind A*68:01 for all entries; do not skip any.
1. ETFLTSELP
2. ITYQAWQAQ [Rv0288_49–57]
3. IPAEFLENF
4. QQIPKLVAN
5. GLSMAGSSA

stdout:
1. 103
2. 56
3. 0
4. 2
5. 0

====

Please go through the items and note down their Aff A*68:01 (ED50).
target: HLA-A*68:01 (Homo sapiens, UniProt P04439, A269V/D185E/E176V/E277Q/E87N/F33Y/G231S/I121M/I166T/I218V/L180W/L300P/L318F/N151K/P208A/P217A/Q86R/R169H/T345S)
Assay type: binding
Numbers only, in M.

- ITYQAWQAQ [Rv0288_49–57]: 9e-06
- EQAALQSAW [Rv0288_35–43]: 1e-05
- NTMAMMARD [Rv0288_79–87]: 7e-05
- TMAMMARDT [Rv0288_80–88]: 6e-05
- AMGDAGGYK: 5e-07
- ANTMAMMAR [Rv0288_78–86]: 3e-06
- QAWQAQWNQ [Rv0288_52–60]: 7e-06
- WQGDTGITY [Rv0288_43–51]: 1e-05
- HAMSSTHEA [Rv0288_70–78]: 6e-06
- FVRSSNLKF: 8e-08

Batch of 5 substances: report Aff A*68:01 (ED50) for each.
1. RDTAEAAKW [Rv0288_86–94]
2. EANTMAMMA [Rv0288_77–85]
3. SSFYSDWYS
4. ETFLTSELP
5. MAMMARDTA [Rv0288_81–89]

stdout:
["1e-05", 0.0007, "1e-07", "7e-07", "5e-06"]
